Exercise: for every item that follows, state its recorded IC50.
TEST TARGET: Nonstructural protein 1 (Influenza A virus, UniProt Q194T2)
Sequence (Q194T2 whole entry): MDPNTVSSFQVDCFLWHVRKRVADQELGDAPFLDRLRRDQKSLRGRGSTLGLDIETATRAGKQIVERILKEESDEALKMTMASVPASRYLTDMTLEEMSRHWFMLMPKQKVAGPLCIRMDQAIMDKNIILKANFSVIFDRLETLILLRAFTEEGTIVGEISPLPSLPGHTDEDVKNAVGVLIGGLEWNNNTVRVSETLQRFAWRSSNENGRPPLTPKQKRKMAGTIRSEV
Type: functional, Influenza A virus (A/California/07/2009(H1N1))
The source made the active and inactive calls.

Query (molecule): `COC(=O)c1ccccc1/N=C1\C=C(NS(=O)(=O)c2cccs2)c2ccccc2C1=O` ; field requested: IC50
4.03 µM (active)

Query (molecule): `COc1cc(/C=C2/C(=O)c3cccc([N+](=O)[O-])c3C2=O)c(Br)cc1O` ; field requested: IC50
20.9 µM (active)

Query (molecule): `CCOC(=O)c1c(N)sc(=S)c2c1CCC2` ; field requested: IC50
> 100 µM (active)

Query (molecule): O=C(N/N=C/C1C(=O)NC(=S)N(c2ccccc2)C1=O)c1cc(Br)c(O)c(Br)c1 (stereo unspecified) ; field requested: IC50
10.5 µM (active)

Query (molecule): `N#C/C(=C\c1ccccc1[N+](=O)[O-])c1nc(C2CC2)cs1` ; field requested: IC50
75.1 µM (active)

Query (molecule): `CCS(=O)(=O)c1ccc(N=Nc2ccc(O)c3ncccc23)c(OC)c1` ; field requested: IC50
9.78 µM (active)

Query (molecule): `O=C(O)Cc1ccc(N=Nc2c(O)c(C(=O)O)cc3ccccc23)cc1` ; field requested: IC50
46 µM (active)

Query (molecule): N=C1C=CC(=C(c2ccc(N)cc2)c2ccc(N)cc2)C=C1 [PARAROSANILINE] ; field requested: IC50
6.87 µM (active)

Query (molecule): `Oc1ccc2ccccc2c1N=Nc1ccc(F)cc1` ; field requested: IC50
16.2 µM (active)

Query (molecule): `Cc1ccn(CC(=O)N/N=C/c2cc([N+](=O)[O-])ccc2O)n1` ; field requested: IC50
7.07 µM (active)

Query (molecule): `O=C/C=C/c1c(-c2ccccc2)cc2oc3ccccc3cc1-2` ; field requested: IC50
37.1 µM (active)

====

Test system: Streptococcus sp. 'group A'
METHOD SUMMARY: Streptococcus pyogenes SK(-)GAS viability under kanamycin – luminescence, BacTiterGlo, confirmation, counter-screen for streptokinase expression inhibitor project, dose response (AID 1900)
Assay type: functional, organism-based
The source made the active and inactive calls.
REPORTED ENDPOINT: EC50

Query (molecule): Cc1nn(-c2ccccc2)c(Cl)c1C1C(C#N)=C(N)OC2=C1C(=O)CC(C)(C)C2 (configuration not stated) ; field requested: EC50
1.4 µM (active)

Query (molecule): `CCCn1cc(CN2CCC(n3nccc3NC(=O)c3ccccc3)CC2)c(C)n1` ; field requested: EC50
> 150 µM (not active)

Query (molecule): `N#Cc1c(NC(=S)NC(=O)C2CCCC2)sc2c1CCCCC2` ; field requested: EC50
8.59 µM (active)

Query (molecule): `O=C(N/N=C/c1cc([N+](=O)[O-])ccc1O)c1cc(-c2ccccc2)nc2ccccc12` ; field requested: EC50
1.83 µM (active)

Query (molecule): `Cc1ccc(-c2cc(-c3ccccc3Cl)[nH]n2)c(O)c1` ; field requested: EC50
6.71 µM (active)

Query (molecule): CCC(C(=O)NCC1CCCO1)n1nc(C)c2sc3ccccc3c2c1=O (configuration not stated) ; field requested: EC50
> 150 µM (not active)

Query (molecule): `O=C1NC(=O)/C(=C/c2ccccc2Oc2ccc(Cl)cc2)S1` ; field requested: EC50
7.87 µM (active)

Provenance of the data: ChEMBL document CHEMBL1201862
